target: Prostaglandin G/H synthase 1 (Homo sapiens, UniProt P23219)
Sequence (P23219 whole entry): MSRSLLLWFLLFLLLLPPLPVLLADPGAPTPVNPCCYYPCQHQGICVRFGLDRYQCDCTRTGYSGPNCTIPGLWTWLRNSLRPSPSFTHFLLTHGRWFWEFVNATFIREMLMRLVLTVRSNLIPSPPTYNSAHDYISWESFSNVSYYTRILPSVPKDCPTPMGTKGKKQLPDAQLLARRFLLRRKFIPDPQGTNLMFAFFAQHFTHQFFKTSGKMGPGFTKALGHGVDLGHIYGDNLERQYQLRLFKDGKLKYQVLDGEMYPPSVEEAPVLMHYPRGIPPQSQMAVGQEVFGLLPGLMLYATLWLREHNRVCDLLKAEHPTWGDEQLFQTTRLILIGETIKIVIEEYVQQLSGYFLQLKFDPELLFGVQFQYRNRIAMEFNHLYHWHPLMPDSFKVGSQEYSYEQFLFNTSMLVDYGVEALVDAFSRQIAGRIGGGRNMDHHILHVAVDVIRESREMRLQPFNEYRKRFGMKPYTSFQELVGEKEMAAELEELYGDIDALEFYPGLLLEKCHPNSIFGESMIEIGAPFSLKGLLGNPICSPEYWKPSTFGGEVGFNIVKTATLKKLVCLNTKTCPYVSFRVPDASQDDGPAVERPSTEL
pIC50: −log10 of the molar value.
What pIC50 was measured for each of the following?

Check out these entries, answers already filled in.
compoundstructure=COCc1cccc(-c2nc(C(F)(F)F)cn2-c2ccc(S(C)(=O)=O)cc2)c1 attributemeasured=pIC50 reported="< 4.00"
compoundstructure=CS(=O)(=O)Cc1cn(-c2ccc(S(C)(=O)=O)cc2)c(-c2ccc(Cl)cc2)n1 attributemeasured=pIC50 reported="< 4.00"
compoundstructure=COc1c(Cl)cc(-c2nc(C(F)(F)F)cn2-c2ccc(S(C)(=O)=O)cc2)cc1Cl attributemeasured=pIC50 reported="< 4.00"

Could I get pIC50 for every one of these entries?
1. CS(=O)(=O)c1ccc(-n2cc(C(F)(F)F)nc2-c2cc(F)cc(C(F)(F)F)c2)cc1
2. Cc1cn(-c2ccc(F)cc2)c(-c2ccc(S(C)(=O)=O)cc2)n1
3. CN(C)c1c(Cl)cc(-c2nc(C(F)(F)F)cn2-c2ccc(S(C)(=O)=O)cc2)cc1Cl

*A*
1: 4.17; 2: < 4.00; 3: < 4.00

* * *

experiment: physchem; conditions: octanol/water
attributeMeasured: logP
One number for each entry.

*Q* What value of logP has been reported for the following molecule? `CS(=O)(=O)c1ccc(-n2cc(C(F)(F)F)nc2-c2ccc(Cl)cc2)cc1`
*A* 3.3

* * *

species: Rattus norvegicus; test: animal or person; assay type: functional
Just a reminder that ties go to Not satisfied: only ED50 strictly below 50 mg/kg counts as Satisfied.

compoundstructure=Cc1ccc(-c2nc(C(F)(F)F)cn2-c2ccc(S(C)(=O)=O)cc2)cc1Cl discretelabel="Not satisfied"

*Q* API: query returns whether the compound falls strictly under 50 mg/kg in ED50. Query: `Cc1cccc(-c2nc(C(F)(F)F)cn2-c2ccc(S(C)(=O)=O)cc2)c1`
*A* Satisfied

*Q* API: query returns whether the compound falls strictly under 50 mg/kg in ED50. Query: `COc1ccc(-c2nc(C(F)(F)F)cn2-c2ccc(S(N)(=O)=O)cc2)cc1F`
*A* Satisfied

*Q* API: query returns whether the compound falls strictly under 50 mg/kg in ED50. Query: `CS(=O)(=O)c1ccc(-n2cc(C(F)(F)F)nc2-c2ccccc2)cc1`
*A* Not satisfied

*Q* API: query returns whether the compound falls strictly under 50 mg/kg in ED50. Query: `Cc1ccccc1-c1nc(C(F)(F)F)cn1-c1ccc(S(C)(=O)=O)cc1`
*A* Satisfied

* * *

What ED50 was measured for each of the following?
species: Rattus norvegicus; test: animal or person; assay type: functional
Numbers only, in mg/kg.

compoundstructure=CS(=O)(=O)c1ccc(-n2cc(C(F)(F)F)nc2-c2ccccc2)cc1 attributemeasured=ED50 unittag=mg/kg reported=20.8
compoundstructure=Cc1cccc(-c2nc(C(F)(F)F)cn2-c2ccc(S(C)(=O)=O)cc2)c1 attributemeasured=ED50 unittag=mg/kg reported=23
compoundstructure=Cc1ccccc1-c1nc(C(F)(F)F)cn1-c1ccc(S(C)(=O)=O)cc1 attributemeasured=ED50 unittag=mg/kg reported=17.8

*Q* What value of ED50 has been reported for the following compound? `CS(=O)(=O)c1ccc(-n2cc(C(F)(F)F)nc2-c2ccc(Cl)cc2)cc1`
*A* 9
